// data source = ChEMBL document CHEMBL1933028

- measurement_protocol: Cmax in dog at 0.3 mg/kg, po
- Assay type: ADME, organism-based, Canis lupus familiaris
- Set-up: dose 0.3 mg/kg, route oral
- condition_set: in vivo
quantity_name: Cmax (ng/mL)

>>> assay_result("Cc1nc(-c2ccc(Cl)cc2)sc1C(=O)N[C@H]1CCCN(c2cccc(C(=O)O)c2)C1")
295

----------
- tested_target: Peroxisome proliferator-activated receptor alpha (Homo sapiens)
- Sequence (Q07869 whole entry): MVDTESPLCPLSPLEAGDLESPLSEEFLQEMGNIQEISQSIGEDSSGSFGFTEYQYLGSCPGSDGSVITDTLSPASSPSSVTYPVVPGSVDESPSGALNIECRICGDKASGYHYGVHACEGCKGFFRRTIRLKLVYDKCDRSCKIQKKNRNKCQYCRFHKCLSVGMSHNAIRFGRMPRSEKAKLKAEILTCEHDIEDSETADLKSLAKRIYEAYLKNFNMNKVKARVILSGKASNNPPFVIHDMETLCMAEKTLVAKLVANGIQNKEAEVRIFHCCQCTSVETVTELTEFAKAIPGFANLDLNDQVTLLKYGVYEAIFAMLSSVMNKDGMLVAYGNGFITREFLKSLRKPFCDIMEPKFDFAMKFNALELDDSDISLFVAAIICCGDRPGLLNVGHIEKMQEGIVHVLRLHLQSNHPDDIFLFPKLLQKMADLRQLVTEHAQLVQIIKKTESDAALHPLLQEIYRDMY
- measurement_protocol: Transactivation of human PPARalpha expressed in CHO-K1 cells
pEC50: −log10 of the molar value.
quantity_name: pEC50

>>> assay_result("CC[C@@H](Cc1ccc(OC)c(C(=O)NCc2ccc(Oc3ccc(F)cc3)cc2)c1)C(=O)O")
7.89
>>> assay_result("Cc1nc(-c2ccc(F)cc2)sc1C(=O)N[C@H]1CCCN(c2cccc(C(=O)O)c2)C1")
7.68
>>> assay_result("Cc1nc(-c2ccc(Cl)cc2)sc1C(=O)NCC1CCCN(c2cccc(C(=O)O)c2)C1 (stereo not given)")
6.12
>>> assay_result("Cc1nc(-c2ccccc2Cl)sc1C(=O)N[C@H]1CCCN(c2cccc(C(=O)O)c2)C1")
7.28

----------
- tested_target: Peroxisome proliferator-activated receptor gamma (Mus musculus, UniProt P37238)
- Sequence (P37238 whole entry): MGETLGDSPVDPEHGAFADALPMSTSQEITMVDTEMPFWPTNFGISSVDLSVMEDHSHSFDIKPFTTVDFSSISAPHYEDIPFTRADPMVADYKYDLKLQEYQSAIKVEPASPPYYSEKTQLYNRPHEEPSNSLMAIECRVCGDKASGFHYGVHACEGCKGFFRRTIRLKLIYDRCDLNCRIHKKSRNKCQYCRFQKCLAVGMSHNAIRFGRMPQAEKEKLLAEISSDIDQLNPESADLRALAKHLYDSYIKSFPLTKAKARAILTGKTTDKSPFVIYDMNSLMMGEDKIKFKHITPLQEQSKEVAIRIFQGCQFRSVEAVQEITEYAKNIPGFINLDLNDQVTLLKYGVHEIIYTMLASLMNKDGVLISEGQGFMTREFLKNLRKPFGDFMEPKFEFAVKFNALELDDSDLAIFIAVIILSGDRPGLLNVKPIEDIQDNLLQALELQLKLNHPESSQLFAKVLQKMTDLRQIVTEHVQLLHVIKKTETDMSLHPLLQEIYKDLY
- measurement_protocol: Agonist activity at mouse PPARgamma
quantity_name: EC50 (µM)

>>> assay_result("Cc1nc(-c2ccc(Cl)cc2)sc1C(=O)N[C@H]1CCCN(c2cccc(C(=O)O)c2)C1")
12

----------
- measurement_protocol: Total clearance in rat at 1 mg/kg, po
- Type: ADME, organism-based
- Parameters: dose 1 mg/kg, route oral
- condition_set: in vivo
quantity_name: CL/F (mL/min/kg)

>>> assay_result("Cc1nc(-c2ccc(Cl)cc2)sc1C(=O)N[C@H]1CCCN(c2cccc(C(=O)O)c2)C1")
1.53

----------
- tested_target: Peroxisome proliferator-activated receptor delta (Homo sapiens, UniProt Q03181)
- Sequence (Q03181 whole entry): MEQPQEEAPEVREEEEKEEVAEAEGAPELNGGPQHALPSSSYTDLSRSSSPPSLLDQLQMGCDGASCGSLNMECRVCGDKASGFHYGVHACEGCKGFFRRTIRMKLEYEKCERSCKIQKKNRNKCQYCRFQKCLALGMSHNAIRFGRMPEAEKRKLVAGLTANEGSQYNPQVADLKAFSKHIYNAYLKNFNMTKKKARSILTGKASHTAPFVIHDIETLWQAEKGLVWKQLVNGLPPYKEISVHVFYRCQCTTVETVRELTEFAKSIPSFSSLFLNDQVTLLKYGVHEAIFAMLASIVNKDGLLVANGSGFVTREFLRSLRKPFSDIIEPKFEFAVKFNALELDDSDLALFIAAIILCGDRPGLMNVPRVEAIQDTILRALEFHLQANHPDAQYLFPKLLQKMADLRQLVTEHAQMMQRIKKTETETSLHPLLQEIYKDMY
- measurement_protocol: Transactivation of human PPARdelta expressed in CHO-K1 cells
- Assay type: cell-based
quantity_name: EC50 (µM)

>>> assay_result("Cc1nc(-c2cccc(Cl)c2)sc1C(=O)N[C@H]1CCCN(c2cccc(C(=O)O)c2)C1")
2.4
>>> assay_result("COc1ccc(-c2nc(C)c(C(=O)N[C@H]3CCCN(c4cccc(C(=O)O)c4)C3)s2)cc1")
1.8
>>> assay_result("Cc1nc(-c2ccccc2Cl)sc1C(=O)N[C@H]1CCCN(c2cccc(C(=O)O)c2)C1")
1.9
>>> assay_result("COc1ccc(-c2cccc(C(=O)O)c2)cc1CNC(=O)c1ccc(Oc2ccccc2)cc1")
0.47
>>> assay_result("CC[C@@H](Cc1ccc(OC)c(C(=O)NCc2ccc(Oc3ccc(F)cc3)cc2)c1)C(=O)O")
1.92
>>> assay_result("Cc1nc(-c2ccccc2)sc1C(=O)N[C@H]1CCCN(c2cccc(C(=O)O)c2)C1")
7.1
>>> assay_result("Cc1nc(-c2ccc(F)cc2)sc1C(=O)N[C@H]1CCCN(c2cccc(C(=O)O)c2)C1")
8.8
>>> assay_result("Cc1ccc(-c2nc(C)c(C(=O)N[C@H]3CCCN(c4cccc(C(=O)O)c4)C3)s2)cc1")
3.1
>>> assay_result("Cc1nc(-c2ccc(Cl)cc2)sc1C(=O)N[C@H]1CCCN(c2cccc(C(=O)O)c2)C1")
3

----------
- tested_target: Peroxisome proliferator-activated receptor alpha (Homo sapiens, UniProt Q07869)
- measurement_protocol: Transactivation of human PPARalpha expressed in CHO-K1 cells
quantity_name: EC50 (nM)

>>> assay_result("Cc1nc(-c2ccc(Cl)cc2)sc1NC(=O)C1CCCN(c2cccc(C(=O)O)c2)C1 (centres undefined)")
280
>>> assay_result("Cc1nc(-c2ccc(Cl)cc2)sc1CCC1CCCN(c2cccc(C(=O)O)c2)C1 (centres undefined)")
810
>>> assay_result("Cc1nc(-c2ccc(Cl)cc2)sc1C(=O)N[C@@H]1CCCN(c2cccc(C(=O)O)c2)C1")
1200
>>> assay_result("Cc1nc(-c2ccc(Cl)cc2)sc1C(=O)NCC1CCCCN(c2cccc(C(=O)O)c2)C1 (centres undefined)")
700
>>> assay_result("Cc1nc(-c2ccc([N+](=O)[O-])cc2)sc1C(=O)N[C@H]1CCCN(c2cccc(C(=O)O)c2)C1")
37
>>> assay_result("Cc1nc(-c2ccc(Cl)cc2)sc1C(=O)NC1CCCN(c2cccc(C(=O)O)c2)C1 (centres undefined)")
5
>>> assay_result("Cc1nc(-c2ccc(Cl)cc2)sc1C(=O)N[C@H]1CCCN(c2cccc(C(=O)O)c2)C1")
8
>>> assay_result("Cc1nc(-c2cccc(Cl)c2)sc1C(=O)N[C@H]1CCCN(c2cccc(C(=O)O)c2)C1")
26
>>> assay_result("Cc1nc(-c2ccc(Cl)cc2)sc1C(=O)N(C)C1CCCN(c2cccc(C(=O)O)c2)C1 (centres undefined)")
3400
>>> assay_result("Cc1ccc(-c2nc(C)c(C(=O)N[C@H]3CCCN(c4cccc(C(=O)O)c4)C3)s2)cc1")
6
>>> assay_result("Cc1nc(-c2ccc(Cl)cc2)sc1COC1CCCN(c2cccc(C(=O)O)c2)C1 (centres undefined)")
250
>>> assay_result("COc1ccc(-c2cccc(C(=O)O)c2)cc1CNC(=O)c1ccc(Oc2ccccc2)cc1")
700
>>> assay_result("COc1ccc(-c2nc(C)c(C(=O)N[C@H]3CCCN(c4cccc(C(=O)O)c4)C3)s2)cc1")
23
>>> assay_result("Cc1nc(-c2ccc(Cl)cc2)sc1C(=O)NCC1CCN(c2cccc(C(=O)O)c2)C1 (centres undefined)")
850
>>> assay_result("Cc1nc(-c2ccc(Cl)cc2)sc1C(=O)NCC1CN(c2cccc(C(=O)O)c2)CCO1 (centres undefined)")
810

----------
- measurement_protocol: Half life in rat at 1 mg/kg, po
- Type: ADME, organism-based
- Parameters: dose 1 mg/kg, route oral
- condition_set: in vivo
quantity_name: half-life (h)

>>> assay_result("Cc1nc(-c2ccc(Cl)cc2)sc1C(=O)N[C@H]1CCCN(c2cccc(C(=O)O)c2)C1")
10

----------
- tested_target: Peroxisome proliferator-activated receptor alpha (Homo sapiens)
- measurement_protocol: Transactivation of human PPARalpha expressed in CHO-K1 cells
Threshold 2 µM: EC50 strictly smaller gives yes, otherwise no.

>>> assigned_label("Cc1nc(-c2ccc(Cl)cc2)sc1C(=O)NC1CCCN(c2ccc(C(=O)O)cc2)C1 (stereo unspecified)")
"yes"
>>> assigned_label("Cc1nc(-c2ccc(Cl)cc2)sc1/C=C/C1CCCN(c2cccc(C(=O)O)c2)C1 (stereo unspecified)")
"yes"
>>> assigned_label("Cc1nc(-c2ccc(Cl)cc2)sc1CNC1CCCN(c2cccc(C(=O)O)c2)C1 (stereo unspecified)")
"no"
>>> assigned_label("Cc1nc(-c2ccccc2)sc1C(=O)N[C@H]1CCCN(c2cccc(C(=O)O)c2)C1")
"yes"
>>> assigned_label("Cc1nc(-c2ccc(Cl)cc2)oc1C(=O)N[C@H]1CCCN(c2cccc(C(=O)O)c2)C1")
"yes"
>>> assigned_label("O=C(O)c1cccc(N2CCCC(CNC(=O)c3ccc(Oc4ccc(F)cc4)cc3)C2)c1 (stereo unspecified)")
"no"

----------
- tested_target: Peroxisome proliferator-activated receptor gamma (Homo sapiens, UniProt P37231)
- Sequence (P37231 whole entry): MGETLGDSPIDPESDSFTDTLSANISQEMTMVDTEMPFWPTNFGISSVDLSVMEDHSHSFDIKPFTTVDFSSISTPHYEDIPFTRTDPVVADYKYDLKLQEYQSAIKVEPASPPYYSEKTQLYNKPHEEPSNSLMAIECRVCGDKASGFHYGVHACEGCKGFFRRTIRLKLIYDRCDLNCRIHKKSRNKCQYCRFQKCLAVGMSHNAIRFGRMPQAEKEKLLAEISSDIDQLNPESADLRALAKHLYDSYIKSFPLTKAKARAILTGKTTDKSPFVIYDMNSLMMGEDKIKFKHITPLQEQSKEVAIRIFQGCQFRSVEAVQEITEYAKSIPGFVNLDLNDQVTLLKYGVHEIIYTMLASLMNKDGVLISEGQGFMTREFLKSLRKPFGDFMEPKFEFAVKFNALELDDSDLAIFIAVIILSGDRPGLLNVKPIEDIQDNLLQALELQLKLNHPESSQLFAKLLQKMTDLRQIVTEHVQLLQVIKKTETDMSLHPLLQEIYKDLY
- measurement_protocol: Transactivation of human PPARgamma expressed in CHO-K1 cells
pEC50: −log10 of the molar value.
quantity_name: pEC50

>>> assay_result("Cc1nc(-c2ccc(Cl)cc2)sc1COC1CCCN(c2cccc(C(=O)O)c2)C1 (stereo unspecified)")
"< 5.01"
>>> assay_result("Cc1ccc(-c2nc(C)c(C(=O)N[C@H]3CCCN(c4cccc(C(=O)O)c4)C3)s2)cc1")
"< 4.96"
>>> assay_result("COc1ccc(-c2nc(C)c(C(=O)N[C@H]3CCCN(c4cccc(C(=O)O)c4)C3)s2)cc1")
"< 4.96"
>>> assay_result("Cc1nc(-c2ccc(Cl)cc2)sc1CCC1CCCN(c2cccc(C(=O)O)c2)C1 (stereo unspecified)")
"< 5.17"
>>> assay_result("Cc1nc(-c2ccc(Cl)cc2)sc1/C=C/C1CCCN(c2cccc(C(=O)O)c2)C1 (stereo unspecified)")
"< 5.01"
>>> assay_result("Cc1nc(-c2ccc(Cl)cc2)sc1C(=O)N[C@@H]1CCCN(c2cccc(C(=O)O)c2)C1")
"< 5.00"
>>> assay_result("Cc1nc(-c2ccc(Cl)cc2)sc1C(=O)NCC1CCN(c2cccc(C(=O)O)c2)C1 (stereo unspecified)")
"< 5.00"
>>> assay_result("Cc1nc(-c2cccc(Cl)c2)sc1C(=O)N[C@H]1CCCN(c2cccc(C(=O)O)c2)C1")
"< 5.28"
>>> assay_result("COc1ccc(-c2cccc(C(=O)O)c2)cc1CNC(=O)c1ccc(Oc2ccccc2)cc1")
5.23
>>> assay_result("Cc1nc(-c2ccccc2Cl)sc1C(=O)N[C@H]1CCCN(c2cccc(C(=O)O)c2)C1")
"< 5.17"
>>> assay_result("Cc1nc(-c2ccc([N+](=O)[O-])cc2)sc1C(=O)N[C@H]1CCCN(c2cccc(C(=O)O)c2)C1")
"< 4.89"
>>> assay_result("Cc1nc(-c2ccc(Cl)cc2)sc1C(=O)NCC1CCCN(c2cccc(C(=O)O)c2)C1 (stereo unspecified)")
"< 5.31"
>>> assay_result("Cc1nc(-c2ccc(Cl)cc2)sc1C(=O)NCC1CN(c2cccc(C(=O)O)c2)CCO1 (stereo unspecified)")
"< 4.82"
>>> assay_result("Cc1nc(-c2ccc(Cl)cc2)oc1C(=O)N[C@H]1CCCN(c2cccc(C(=O)O)c2)C1")
"< 4.92"
>>> assay_result("Cc1nc(-c2ccc(Cl)cc2)sc1C(=O)NC1CCCN(c2cccc(C(=O)O)c2)C1 (stereo unspecified)")
"< 5.00"
>>> assay_result("Cc1nc(-c2ccccc2)sc1C(=O)N[C@H]1CCCN(c2cccc(C(=O)O)c2)C1")
"< 4.72"
>>> assay_result("Cc1nc(-c2ccc(Cl)cc2)sc1CNC1CCCN(c2cccc(C(=O)O)c2)C1 (stereo unspecified)")
"< 4.89"
>>> assay_result("Cc1nc(-c2ccc(Cl)cc2)sc1NC(=O)C1CCCN(c2cccc(C(=O)O)c2)C1 (stereo unspecified)")
"< 4.89"
>>> assay_result("CC[C@@H](Cc1ccc(OC)c(C(=O)NCc2ccc(Oc3ccc(F)cc3)cc2)c1)C(=O)O")
5.60
>>> assay_result("Cc1nc(-c2ccc(F)cc2)sc1C(=O)N[C@H]1CCCN(c2cccc(C(=O)O)c2)C1")
"< 5.01"
>>> assay_result("Cc1nc(-c2ccc(Cl)cc2)sc1C(=O)N[C@H]1CCCN(c2cccc(C(=O)O)c2)C1")
5.02
